# Tested on: stage 2 neural stem cells
# Method: factor criticality analysis (dynamic profile analysis) of stage 3 recipe
# Format: cell-based, human
# Parameters: unit not given here
# Condition Notes: other five factors present, 220 with all six factors
I'd be grateful if you could share measured expression level of DLX1 when the effector is removed for these entries.
Give bare numbers.

>>> df
                    structure_smiles_string  value_measured
0  C[C@H](NC(=O)Cc1cc(F)cc(F)c1)C(=O)N[C@@H]1C(=O)N(C)c2ccccc2-c2ccccc21              50

Here is another compound to look at.
Ask | Find the recorded expression level of DLX1 when the effector is removed belonging to `CCCn1/c(=N/C(=O)c2cccc(C(N)=O)c2)[nH]c2ccccc21` and report it.
Reply | 180

Numbers sourced from patent US20230332103A1.
